Every entry's value here was drawn from FireProtDB (doi:10.1006/jmbi.1998.1906).

B1: Lysozyme C, P61626 (parent)
chain: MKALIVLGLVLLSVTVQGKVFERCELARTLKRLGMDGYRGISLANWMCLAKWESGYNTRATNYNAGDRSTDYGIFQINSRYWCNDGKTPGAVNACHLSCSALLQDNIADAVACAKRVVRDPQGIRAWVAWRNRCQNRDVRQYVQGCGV

# Variants of: B1
# CONDITIONS USED: Homo sapiens; pH 2.7; Thermal; DSC; glycine 0.05 M; reversible: yes; structure 1LZ1; whole UniProt chain shown
So I've got a bunch of variants here, and I need their Tm values.
Please respond with the number in °C and leave the unit unwritten.

Asked: Which Tm value belongs to MKALIVLGLVLLSVTVQGKVFERCELARTLKRLGMDGYRGISLANWMCLAKWESGYNTRATNYNAGDRSTDYGIFQINSRYWCNDGKTPGAVNACHLSCSALLQDNIADAVACAKRAVRDPQGIRAWVAWRNRCQNRDVRQYVQGCGV [V117A] ?
Given back: 44.8

Asked: Find the recorded Tm belonging to MKALIVLGLVLLSVTVQGKVFERCELARTLKRLGMDGYRGISLANWMCLAKWESGYNTRATNYNAGDRSTDYGIFQVNSRYWCNDGKTPGAVNACHLSCSALLQDNIADAVACAKRVVRDPQGIRAWVAWRNRCQNRDVRQYVQGCGV [I77V] and report it.
Given back: 44.8

Asked: Can you share its Tm? I mean this variant: MKALIVLGLVLLSVTVQGKVFERCELARTLKRLGMDGYRGISLANWMCLAKWESGYNTRATNYNAGDRSTDYGIFQINSRYWCNDGKTPGAVNACHLSCSALLQDNIADAVACAKRVVRDPQGIRAWVAWRNRCQNRDVRQYVQGCGA [V148A]
Given back: 44.4

Asked: Recorded Tm for MKALIVLGLVLLSVTVQGKVFERCELARTLKRLGMDGYRGISLANWMCLAKWESGYNTRATNYNAGDRSTDYGIFQINSRYWCNDGKTPGAVNACHLSCSALLQDNIADAVACAKRVARDPQGIRAWVAWRNRCQNRDVRQYVQGCGV [V118A] , please?
Given back: 46.6

Asked: Tell me the measured Tm of MKALIVLGLVLLSVTVQGKVFERCELARTLKRLGMDGYRGVSLANWMCLAKWESGYNTRATNYNAGDRSTDYGIFQINSRYWCNDGKTPGAVNACHLSCSALLQDNIADAVACAKRVVRDPQGIRAWVAWRNRCQNRDVRQYVQGCGV [I41V] , please.
Given back: 47.6

Asked: Dear colleague, I am looking for the recorded Tm of the following variant: MKALIVLGLVLLSVTVQGKAFERCELARTLKRLGMDGYRGISLANWMCLAKWESGYNTRATNYNAGDRSTDYGIFQINSRYWCNDGKTPGAVNACHLSCSALLQDNIADAVACAKRVVRDPQGIRAWVAWRNRCQNRDVRQYVQGCGV [V20A]
Given back: 41.3
